All figures here come from patent US12685312B2.

Each entry below carries its recorded % Inhibition of Apyrase.
- Test system: apyrase
- method.summary: Screen for apyrase inhibitors (Method 1, in vitro phosphate-release absorbance assay)
- Format: biochemical
- measurement.parameters: inhibitor conc at 1 mM stock, 1 hr room temperature, absorbance 630 nm; rounded average of two assay results
- Method: Apyrase inhibitors useful as enhancers of pesticidal activity are assessed using an in vitro assay. […]
Report as a plain number; the unit % is understood.

[
  {
    "sample.smiles": "O=C(Nc1cccc(S(=O)(=O)Nc2ccccc2Cl)c1)c1cnc(Cl)c(Cl)c1",
    "quantity.unit": "%",
    "endpoint.result": 30
  },
  {
    "sample.smiles": "O=C1Cc2cc(S(=O)(=O)Nc3ccccc3NC(=O)c3ccc(Cl)cc3)ccc2N1",
    "quantity.unit": "%",
    "endpoint.result": 5
  },
  {
    "sample.smiles": "COc1ccc(NS(=O)(=O)c2ccc(NC(=O)c3ccccc3OC(F)F)cc2)cc1OC",
    "quantity.unit": "%",
    "endpoint.result": 46
  },
  {
    "sample.smiles": "O=C(Nc1cccc(S(=O)(=O)Nc2ccc(SC(F)F)cc2)c1)c1ccco1",
    "quantity.unit": "%",
    "endpoint.result": 6
  },
  {
    "sample.smiles": "O=C(Nc1cccc(NS(=O)(=O)c2ccc(Cl)cc2)c1)c1ccc2[nH]cnc2c1",
    "quantity.unit": "%",
    "endpoint.result": 63
  },
  {
    "sample.smiles": "O=C1Cc2cccc(NS(=O)(=O)c3ccc(Cl)cc3)c2N1",
    "quantity.unit": "%",
    "endpoint.result": 5
  },
  {
    "sample.smiles": "COc1ccc(NC(=O)c2ccc(NS(=O)(=O)c3ccc(Cl)cc3F)cc2)cc1",
    "quantity.unit": "%",
    "endpoint.result": 22
  },
  {
    "sample.smiles": "Cc1ccc(NC(=O)c2ccc(S(=O)(=O)Nc3ccc(Cl)cc3)cc2)cc1S(=O)(=O)N(C)C",
    "quantity.unit": "%",
    "endpoint.result": 62
  }
]

Continue with the molecule presented below.
Please state recorded % Inhibition of Apyrase (tested on apyrase) of O=C(Nc1ccc(OC(F)(F)F)cc1)c1cccc(S(=O)(=O)Nc2ccc3c(c2)OCO3)c1
78
